meta.source: PubChem BioAssay (NCI)

As shown below, each of these compounds has a reported growth inhibition value.
- ASSAY_OVERVIEW: NCI Yeast Anticancer Drug Screen. Data for the sgs1 strain (AID 173);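 further: 0% = growth of vehicle-only control cultures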
- RECORDED_CONDITIONS: S. cerevisiae sgs1 mutant, at 3.7 µM, hits give high values
This is part of a sample that, as a whole, favours compounds with a hit. Of some 79,000 tested, about 15% had one in any assay.
Give the value in % but do not write % after it.

Please review the entries below; each comes with its answer.
Ask | Please report the recorded growth inhibition for `Cc1cccc[c]1[Sn]([Cl])([S]/C(C#N)=N/N=C/c1ccc(N(C)C)cc1)[c]1ccccc1C` .
Reply | -3

Ask | Quick one: `Cn1c(COc2ccc(/C=N/NC(=O)CCC(=O)N/N=C/c3ccc(OCc4c[n+]5ccccc5n4C)cc3)cc2)c[n+]2ccccc12`
Reply | 4

Ask | Quick one: c1ccc(C2=NNC3c4ccccc4-c4ccccc4N3C2)cc1 (stereo not given)
Reply | -4

Further cases:
Ask | Please report the recorded growth inhibition for `CCN(CC)c1cccc(Nc2nc3ccccc3s2)c1` .
Reply | 7

Ask | Quick one: `O=C(CCC(=O)c1ccc(O)cc1)Oc1ccc(O)cc1`
Reply | 1
